Hello, the source for this data is ChEMBL document CHEMBL1201862, in case you need it.

System: LOX IMVI
ASSAY PROCEDURE: NCI tumour cell line growth inhibition, 48 h
Active and inactive are the calls of the source. No stated cut-off is given here; in the data, active = GI50 up to about 1.1 µM and inactive = higher.
Each item that follows carries a reported GI50.

MOLECULE	PROPERTY	VALUE REPORTED
COc1ccc(NC(=O)c2cc(NC(=O)/C=C/c3ccccc3)c(OC)c(OC)c2)cc1	GI50	4.73 µM (inactive)

Any idea what GI50 was measured for C[C@@H]1C[C@]2(C[C@@H](C)[C@H]3C(C[C@@]4(C)CCC[C@@H]5C6=C[C@H](CCC34C)OC6=CC(=O)OC5(C)C)O2)OC1=O (stereo not given in full) ? > 51.5 µM (inactive)

Same again, this time with "CCOC(=O)c1c(CN2CCNCC2)nc2ccccc2c1-c1ccccc1" 15.8 µM (inactive)

----------
Tested on: U-251
ASSAY PROCEDURE: NCI tumour cell line growth inhibition, 48 h
Activity calls are given as the source filed them. No stated cut-off is given here; in the data, active = GI50 up to about 1.1 µM and inactive = higher. Where a SMILES comes first, the peptide text is derived from it. The star is where a group is joined. Fmoc = O=C(OCC1c2ccccc2-c2ccccc21)*; Boc = CC(C)(C)OC(=O)*
PROPERTY: GI50

Field: example entries. Status: answers known.
MOLECULE	GI50
CC(C)(C)OC(=O)NCCCCC(NC(=O)C(Cc1c[nH]c2ccccc12)NC(=O)OCC1c2ccccc2-c2ccccc21)C(=O)O (stereo not drawn) (Fmoc-Trp-Lys(Boc)-OH; configuration not given here)	17.1 µM (inactive)
O=C(O)Cc1ccc(Oc2nc3ccccc3nc2-c2ccccc2)cc1	56.2 µM (inactive)
CSc1nc2c(c(O)c(C)c(=O)n2C2OCC(OC(C)=O)C(OC(C)=O)C2OC(C)=O)c(=O)n1C (stereo not drawn)	> 100 µM (inactive)
O=C(CO)CC(=O)C(=O)Nc1ccccc1	> 100 µM (inactive)
CN(C)CCSc1cc(-c2ccccc2)c2ccccc2n1	10.6 µM (inactive)
CCOC(=O)c1cn(CC)c2cc3c(cc2c1=O)CCS3(=O)=O	> 100 µM (inactive)
COc1ccc(N2C(=O)C3c4[nH]c5c(C)cccc5c4C4CCC(c5ccccc5)CC4C3C2=O)cc1 (stereo not drawn)	8.43 µM (inactive)
N#CC1(C#N)C(c2ccccc2)C=CC(c2ccc([N+](=O)[O-])cc2)C1(C#N)C#N (stereo not drawn)	20.4 µM (inactive)
COC(=O)C1Cc2c([nH]c3ccccc23)-c2[nH]c3ccccc3c2CC(NC(C)=O)C(=O)NCC(=O)N1 (stereo not drawn)	> 100 µM (inactive)
O=C(O)c1nc2ccc(C(F)(F)F)cc2nc1Nc1ccc(Cl)c(Cl)c1	3.93 µM (inactive)

Any idea what GI50 was measured for "Cc1ccc2c(c1)C(=O)/C(=C\c1ccc(Cl)cc1)CCS2(=O)=O" ? 3.38 µM (inactive)

Same again, this time with NC(Cc1ccc(S(=O)(=O)O)cc1)C(=O)NC(Cc1ccc(S(=O)(=O)O)cc1)C(=O)NC(Cc1ccc(S(=O)(=O)O)cc1)C(=O)NC(Cc1ccc(S(=O)(=O)O)cc1)C(=O)O (stereo not drawn) > 100 µM (inactive)

Same again, this time with "COc1ccccc1/C=C1\Sc2scc(-c3cccc([N+](=O)[O-])c3)[n+]2C1=O" 14.9 µM (inactive)

Same again, this time with "Cc1cc2c(C)n(Cc3ccc(Cl)cc3Cl)nc2c(C(=O)O)c1C" > 100 µM (inactive)

Same again, this time with "COc1ccc(/C=C/C(=O)N[C@@H]2C(=O)N3[C@@H]2SC(C)(C)[C@@H]3C(=O)O)cc1OC" > 100 µM (inactive)
